- MEASUREMENT NOTES: In vivo pharmacokinetics in male CD-1 mice, i.v.
- Parameters: species or system mouse
- MEASUREMENT PARAMETERS: mouse, plasma, iv, 5 mg/kg i.v.
QUANTITY: AUC(0-t)

C/C(=C\[C@H](C)CCCCC(=O)O)[C@@H]1O[C@@H]2C=C[C@H]1OC(=O)\C=C/C=C\C=C\[C@H]1O[C@@H]3C[C@H]1O[C@@H](/C=C/C[C@H]1O[C@H](C[C@H](O)[C@H]1C)[C@@H](O)[C@@H](O)/C=C/CC/C=C/C2)[C@@H]3C : 341 ng·h/mL

###

- MEASUREMENT NOTES: in vitro
- Type: in vitro ADME
- MEASUREMENT PARAMETERS: rat plasma; read-out: Plasma Stability t1/2
QUANTITY: half-life at 1 µM

C/C(=C\[C@H](C)CCCCC(=O)O)[C@@H]1O[C@@H]2C=C[C@H]1OC(=O)\C=C/C=C\C=C\[C@H]1O[C@@H]3C[C@H]1O[C@@H](/C=C/C[C@H]1O[C@H](C[C@H](O)[C@H]1C)[C@@H](O)[C@@H](O)/C=C/CC/C=C/C2)[C@@H]3C : > 4 h

Reference source for all entries: paper PMC10454396
